Values were extracted from patent US10597391B2.

# assayTarget: human FXR (NR1H4) (Homo sapiens)
# measurementDescription: Human FXR (NR1H4) Assay: Gal4 promoter driven luciferase reporter transactivation in CHO cells (Indigo Bioscience kit IB00601)
# Type: cell-based
# assayConditions: CHO, efficacy normalized to CDCA set as 100%; read-out: Efficacy (%)
Everything with Emax lower than 90% is f; everything else, including exactly 90%, is t.

Observe how each entry below is paired with its result.
compound | classification
CS(=O)(=O)NC(=O)c1ccc(NC(=O)N2C3CCC2CC(OCc2c(-c4ccccc4OC(F)(F)F)noc2C2CC2)C3)cc1 (stereo not drawn) [Example 752] | t
COC(=O)c1ccc(NC(=O)N2C3CCC2CC(OCc2c(-c4c(Cl)cccc4Cl)noc2C2CC2)C3)cc1-c1ccc(OC)nc1 (stereo not drawn) [Example 784] | t
O=C(Nc1cccc(-c2ccccc2)c1)N1C2CCC1CC(OCc1c(-c3c(Cl)cccc3Cl)noc1C1CC1)C2 (stereo not drawn) [Example 729] | t
O=C(NCc1cccc(C(F)(F)F)c1)N1C2CCC1CC(OCc1c(-c3c(Cl)cccc3Cl)noc1C1CC1)C2 (stereo not drawn) [Example 734] | t
CCOC(=O)c1ccccc1NC(=O)N1C2CCC1CC(OCc1c(-c3ccccc3OC(F)(F)F)noc1C1CC1)C2 (stereo not drawn) [Example 743] | t
CCOc1cc(C(=O)O)ccc1NC(=O)N1C2CCC1CC(OCc1c(-c3c(F)cccc3F)noc1C1CC1)C2 (stereo not drawn) [Example 810] | f

State whether the measured Emax reaches 90%, counting equality as reaching it, for O=C(O)c1ccc2c(c1)CN(C(=O)N1C3CCC1CC(OCc1c(-c4ccccc4OC(F)(F)F)noc1C1CC1)C3)CC2 (stereo not drawn) [Example 834] t

Tell me whether Emax is at least 90% here: COC(=O)c1cccc(OC)c1NC(=O)N1C2CCC1CC(OCc1c(-c3ccccc3OC(F)(F)F)noc1C1CC1)C2 (stereo not drawn) [Example 751] f

API: above_or_equal(metric=Emax, cutoff=90%) for item O=C(Nc1ccc(-c2nnn[nH]2)cc1)N1C2CCC1CC(OCc1c(-c3c(Cl)cccc3Cl)noc1C1CC1)C2 (stereo not drawn) [Example 701] t

Determine whether measured Emax meets or exceeds 90% for CN1CC=C(c2cccc(NC(=O)N3C4CCC3CC(OCc3c(-c5c(Cl)cccc5Cl)noc3C3CC3)C4)c2)CC1 (stereo not drawn) [Example 715] t

Quick check, Emax >= 90%? O=C(NS(=O)(=O)c1ccccc1)c1cccc(NC(=O)N2C3CCC2CC(OCc2c(-c4ccccc4OC(F)(F)F)noc2C2CC2)C3)c1 (stereo not drawn) [Example 759] t

Does O=C(O)c1ccc(NC(=O)N2C3CCC2CC(OCc2c(-c4c(Cl)cccc4Cl)noc2C2CC2)C3)c(F)c1 (stereo not drawn) [Example 692] have a reported Emax of at least 90%? t

Reported Emax reaches at least 90% for COC(=O)c1cc(NC(=O)N2C3CCC2CC(OCc2c(-c4c(Cl)cccc4Cl)noc2C2CC2)C3)cc(-c2cccnc2)c1 (stereo not drawn) [Example 726] ? f

Does COc1c(NC(=O)N2C3CCC2CC(OCc2c(-c4ccccc4OC(F)(F)F)noc2C2CC2)C3)cccc1C(=O)OC(C)(C)C (stereo not drawn) [Example 760] have a reported Emax of at least 90%? t

In plain terms: is recorded Emax at least 90% for O=C(O)c1ccc(NC(=O)N2C3CCC2CC(OCc2c(-c4c(F)cccc4F)noc2C2CC2)C3)c(C(F)(F)F)c1 (stereo not drawn) [Example 818] ? f

---

A collection of compounds and their measured Emax
# assayTarget: human FXR (NR1H4) (Homo sapiens, UniProt Q96RI1)
# measurementDescription: Human FXR (NR1H4) Assay: Gal4 promoter driven luciferase reporter transactivation in CHO cells (Indigo Bioscience kit IB00601)
# Assay type: cell-based
# assayConditions: CHO, read-out: Efficacy (%)
Respond numerically; units are % and should not be typed.

compound | valueType | recordedValue
O=C(O)c1ccc2c(c1)CCCN2C(=O)N1C2CCC1CC(OCc1c(-c3ccccc3OC(F)(F)F)noc1C1CC1)C2 (centres unmarked) [Example 594] | Emax | 49
O=C(O)c1ccc2c(c1)N(C(=O)N1C3CCC1CC(OCc1c(-c4ccccc4OC(F)(F)F)noc1C1CC1)C3)CC2 (centres unmarked) [Example 590] | Emax | 67
COC(=O)c1ccc2c(c1)N(C(=O)N1C3CCC1CC(OCc1c(-c4ccccc4OC(F)(F)F)noc1C1CC1)C3)CC2 (centres unmarked) [Example 589] | Emax | 76
CCOC(=O)c1ccc2c(c1)N(C(=O)N1C3CCC1CC(OCc1c(-c4ccccc4OC(F)(F)F)noc1C1CC1)C3)CCC2 (centres unmarked) [Example 595] | Emax | 7

What the record says about C[C@@H](NC(=O)N1C2CCC1CC(OCc1c(-c3c(Cl)cccc3Cl)noc1C1CC1)C2)c1ccccc1 (some centres unmarked) [Example 694] : Emax is 124

---

# assayTarget: human FXR (NR1H4) (Homo sapiens)
# Sequence (Q96RI1 1-486): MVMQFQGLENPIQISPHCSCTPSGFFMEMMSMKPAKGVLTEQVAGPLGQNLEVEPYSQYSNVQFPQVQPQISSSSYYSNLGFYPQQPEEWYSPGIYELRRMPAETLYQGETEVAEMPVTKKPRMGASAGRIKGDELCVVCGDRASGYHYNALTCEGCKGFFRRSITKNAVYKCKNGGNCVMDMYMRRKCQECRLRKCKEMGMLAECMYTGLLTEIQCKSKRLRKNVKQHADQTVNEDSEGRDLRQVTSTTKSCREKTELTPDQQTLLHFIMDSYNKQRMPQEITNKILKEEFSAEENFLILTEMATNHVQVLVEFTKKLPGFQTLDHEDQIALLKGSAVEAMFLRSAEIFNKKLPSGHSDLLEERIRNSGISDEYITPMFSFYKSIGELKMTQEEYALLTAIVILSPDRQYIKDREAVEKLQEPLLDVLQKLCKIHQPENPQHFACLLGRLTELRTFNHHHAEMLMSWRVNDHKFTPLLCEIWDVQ
# measurementDescription: Human FXR (NR1H4) Assay: Gal4 promoter driven luciferase reporter transactivation in CHO cells (Indigo Bioscience kit IB00601)
# Format: cell-based
# assayConditions: CHO, efficacy normalized to CDCA set as 100%; read-out: Efficacy (%)
valueType: Emax (%)
Output spec: scalar in %, unitless text.

Please review the entries below; each comes with its answer.
compound | assayTarget | Emax (%)
CC(C)S(=O)(=O)NC(=O)c1cccc(NC(=O)N2C3CCC2CC(OCc2c(-c4ccccc4OC(F)(F)F)noc2C2CC2)C3)c1 (centres unmarked) | human FXR (NR1H4) (Homo sapiens) | 233
O=C(Nc1ccc(F)cc1)N1C2CCC1CC(OCc1c(-c3c(Cl)cccc3Cl)noc1C1CC1)C2 (centres unmarked) | human FXR (NR1H4) (Homo sapiens) | 182
CC(C)(C)c1ccc(C(=O)NC(=O)N2C3CCC2CC(OCc2c(-c4c(Cl)cccc4Cl)noc2C2CC2)C3)cc1 (centres unmarked) | human FXR (NR1H4) (Homo sapiens) | 5
COC(=O)c1ccc(OC)c(NC(=O)N2C3CCC2CC(OCc2c(-c4c(Cl)cccc4Cl)noc2C2CC2)C3)c1 (centres unmarked) | human FXR (NR1H4) (Homo sapiens) | 137
COC(=O)c1cccc(F)c1NC(=O)N1C2CCC1CC(OCc1c(-c3ccccc3OC(F)(F)F)noc1C1CC1)C2 (centres unmarked) | human FXR (NR1H4) (Homo sapiens) | 211

Looking up COC(=O)c1ccc2c(c1)CN(C(=O)N1C3CCC1CC(OCc1c(-c4ccccc4OC(F)(F)F)noc1C1CC1)C3)CC2 (centres unmarked) , I found its Emax recorded as 80

Record O=C(O)c1cnc2cc(NC(=O)N3C4CCC3CC(OCc3c(-c5c(Cl)cccc5Cl)noc3C3CC3)C4)ccc2c1 (centres unmarked) , field Emax: 50

---

Measured EC50 accompanies every entry in the list below.
# assayTarget: human FXR (NR1H4) (Homo sapiens, UniProt Q96RI1)
# measurementDescription: Human FXR (NR1H4) Assay: Gal4 promoter driven luciferase reporter transactivation in CHO cells (Indigo Bioscience kit IB00601)
# Format: cell-based
# assayConditions: potency range, Human FXR (NR1H4) reporter assay in CHO cells; read-out: EC50

compound | assayTarget | valueType | recordedValue
COC(=O)c1ccc(NC(=O)N2C3CCC2CC(OCc2c(-c4c(Cl)cccc4Cl)noc2C2CC2)C3)nc1 (stereo not drawn) | human FXR (NR1H4) (Homo sapiens, UniProt Q96RI1) | EC50 | 10 to 100 nM
CCOc1cc(C(=O)OC)ccc1NC(=O)N1C2CCC1CC(OCc1c(-c3c(Cl)cccc3Cl)noc1C1CC1)C2 (stereo not drawn) | human FXR (NR1H4) (Homo sapiens, UniProt Q96RI1) | EC50 | 10 to 100 nM
CCOC(=O)c1ccccc1NC(=O)N1C2CCC1CC(OCc1c(-c3ccccc3OC(F)(F)F)noc1C1CC1)C2 (stereo not drawn) | human FXR (NR1H4) (Homo sapiens, UniProt Q96RI1) | EC50 | > 1000 nM
COC(=O)c1ccc2c(c1)CN(C(=O)N1C3CCC1CC(OCc1c(-c4ccccc4OC(F)(F)F)noc1C1CC1)C3)CC2 (stereo not drawn) | human FXR (NR1H4) (Homo sapiens, UniProt Q96RI1) | EC50 | > 1000 nM
O=C(O)c1ccc(F)c(NC(=O)N2C3CCC2CC(OCc2c(-c4ccccc4OC(F)(F)F)noc2C2CC2)C3)c1 (stereo not drawn) | human FXR (NR1H4) (Homo sapiens, UniProt Q96RI1) | EC50 | 10 to 100 nM

Per the records, this compound ( CC(C)Oc1cc(C(=O)O)ccc1NC(=O)N1C2CCC1CC(OCc1c(-c3c(Cl)cccc3Cl)noc1C1CC1)C2 (stereo not drawn) ) has EC50 equal to 10 to 100 nM

// recorded EC50 for O=C(O)c1ccc2c(c1)CN(C(=O)N1C3CCC1CC(OCc1c(-c4ccccc4OC(F)(F)F)noc1C1CC1)C3)CC2 (stereo not drawn) : 100 to 1000 nM

Reported EC50 ( COC(=O)c1ccc(OC)c(NC(=O)N2C3CCC2CC(OCc2c(-c4c(Cl)cccc4Cl)noc2C2CC2)C3)c1 (stereo not drawn) ) = 10 to 100 nM

EC50 in this record for O=C(O)c1ccc(NC(=O)N2C3CCC2CC(NCc2c(-c4c(Cl)cccc4Cl)noc2C2CC2)C3)cc1 (stereo not drawn) : 10 to 100 nM
